# Tested On: Histamine H2 receptor (Homo sapiens, UniProt P25021)
# Sequence (P25021 whole entry): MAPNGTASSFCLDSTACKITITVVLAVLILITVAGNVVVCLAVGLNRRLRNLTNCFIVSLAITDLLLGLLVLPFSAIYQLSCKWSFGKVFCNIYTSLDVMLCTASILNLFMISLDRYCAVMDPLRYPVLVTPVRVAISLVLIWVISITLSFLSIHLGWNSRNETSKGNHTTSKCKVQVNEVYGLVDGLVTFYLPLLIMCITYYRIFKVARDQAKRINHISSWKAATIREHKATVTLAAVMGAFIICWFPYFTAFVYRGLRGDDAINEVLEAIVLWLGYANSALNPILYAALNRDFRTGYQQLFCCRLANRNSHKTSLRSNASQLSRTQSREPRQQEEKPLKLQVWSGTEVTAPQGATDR
Measured Quantity: Kd (µM)

[[record]]
compound = "CNC(=S)NCCCCc1cnc[nH]1 [BURIMAMIDE]"
measurement_units = "µM"
test_result = 7.8


* * *

Recorded ED50 by entry
# Tested on: Rattus norvegicus
# Assay Procedure: Antinociceptive activity in icv dosed Rattus norvegicus albino (rat) tus norvegicus Sprague-Dawley (rat) assessed as increase in thermal-stimulus induced tail flick latency after 5 to 10 min
# Format: functional
Measured Quantity: ED50 (nmol)

[[record]]
molecule = "S=C(NC1CCCCC1)N1CCC(c2cnc[nH]2)CC1 [THIOPERAMIDE]"
operator = ">"
test_result = 342

[[record]]
molecule = "CN/C(=N\\C#N)NCCSCc1ccccc1"
operator = ">"
test_result = 403

[[record]]
molecule = "CNC(=S)N1CCC(c2c[nH]cn2)CC1"
operator = "="
test_result = 201

[[record]]
molecule = "CNC(=C[N+](=O)[O-])NCCSCc1ccc(CN(C)C)o1 [RANITIDINE]"
operator = "="
test_result = 109

[[record]]
molecule = "S=C(NCCCCc1c[nH]cn1)NCCc1ccccc1"
operator = "="
test_result = 80

[[record]]
molecule = "C/N=C(\\S)NCCCc1c[nH]cn1 [NORBURIMAMIDE]"
operator = "="
test_result = 217


* * *

# Tested On: Histamine H3 receptor (Homo sapiens, UniProt Q9Y5N1)
# Sequence (Q9Y5N1 whole entry): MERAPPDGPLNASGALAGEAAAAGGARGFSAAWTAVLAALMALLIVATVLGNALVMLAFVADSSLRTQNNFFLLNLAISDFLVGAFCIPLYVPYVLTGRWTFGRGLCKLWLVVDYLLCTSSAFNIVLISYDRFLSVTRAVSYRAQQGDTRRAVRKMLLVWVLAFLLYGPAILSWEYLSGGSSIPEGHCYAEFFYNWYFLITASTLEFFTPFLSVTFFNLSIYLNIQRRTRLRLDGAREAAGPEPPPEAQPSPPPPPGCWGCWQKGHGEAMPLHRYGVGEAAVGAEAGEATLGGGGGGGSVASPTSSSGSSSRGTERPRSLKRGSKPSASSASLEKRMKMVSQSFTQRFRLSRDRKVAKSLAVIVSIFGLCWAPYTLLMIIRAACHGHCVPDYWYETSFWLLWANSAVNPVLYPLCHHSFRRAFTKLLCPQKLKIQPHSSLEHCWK
pKd: −log10 of the molar value.
Measured Quantity: pKd

[[record]]
compound = "CNC(=S)NCCCCc1cnc[nH]1 [BURIMAMIDE]"
tested_on = "Histamine H3 receptor (Homo sapiens, UniProt Q9Y5N1)"
test_result = 7.00


* * *

Recorded ED50 by entry
# Tested on: Rattus norvegicus
# Assay Procedure: Antinociceptive activity in icv dosed Rattus norvegicus albino (rat) tus norvegicus Sprague-Dawley (rat) assessed as increase in thermal-stimulus induced tail flick latency after 5 to 10 min
# Type: functional
Measured Quantity: ED50 (nmol)

[[record]]
compound = "c1ccc(NCCCOc2cccc(CN3CCCCC3)c2)cc1"
measurement_units = "nmol"
operator = ">"
test_result = 308

[[record]]
compound = "CN/C(=N\\C#N)NCCCc1c[nH]cn1"
measurement_units = "nmol"
operator = "="
test_result = 330

[[record]]
compound = "CNC(=S)NCCSCc1ccc(CN(C)C)o1"
measurement_units = "nmol"
operator = "="
test_result = 117

[[record]]
compound = "CN/C(=C\\[N+](=O)[O-])NCCCCc1c[nH]cn1"
measurement_units = "nmol"
operator = "="
test_result = 104

[[record]]
compound = "S=C(NCCCCc1c[nH]cn1)NC1CCCCC1"
measurement_units = "nmol"
operator = "="
test_result = 285

[[record]]
compound = "C/N=C(\\S)NCCCCc1c[nH]cn1 [BURIMAMIDE]"
measurement_units = "nmol"
operator = "="
test_result = 184


* * *

# Tested On: Histamine H3 receptor (Cavia porcellus, UniProt Q9JI35)
# Sequence (Q9JI35 whole entry): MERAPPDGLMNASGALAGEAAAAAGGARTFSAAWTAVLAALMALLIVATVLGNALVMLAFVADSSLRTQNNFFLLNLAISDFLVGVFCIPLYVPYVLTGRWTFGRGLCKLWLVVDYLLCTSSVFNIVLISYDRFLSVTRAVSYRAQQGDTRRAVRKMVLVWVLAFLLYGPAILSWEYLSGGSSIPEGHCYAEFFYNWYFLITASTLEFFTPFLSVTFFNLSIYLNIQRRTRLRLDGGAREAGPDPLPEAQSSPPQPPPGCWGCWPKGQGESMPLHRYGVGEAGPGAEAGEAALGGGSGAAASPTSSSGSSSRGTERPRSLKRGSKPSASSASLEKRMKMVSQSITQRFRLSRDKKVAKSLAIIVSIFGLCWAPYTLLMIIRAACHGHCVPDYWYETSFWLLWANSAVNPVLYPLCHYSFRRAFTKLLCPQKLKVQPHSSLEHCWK
Measured Quantity: Kd (µM)

[[record]]
entry_smiles = "CN/C(=N\\C#N)NCCCc1c[nH]cn1"
measurement_units = "µM"
test_result = 5


* * *

# System: Rattus norvegicus
# Assay Procedure: Antinociceptive activity in icv dosed Rattus norvegicus albino (rat) tus norvegicus Sprague-Dawley (rat) assessed as increase in thermal-stimulus induced tail flick latency after 5 to 10 min
# Type: functional
Recorded ED50 by entry
Measured Quantity: ED50 (nmol)

[[record]]
compound = "C/N=C(\\S)NCCCn1ccnc1"
measured_quantity = "ED50"
operator = ">"
test_result = 504

[[record]]
compound = "CN/C(=N\\C#N)NCCSCc1ccc(CN(C)C)o1"
measured_quantity = "ED50"
operator = "="
test_result = 67

[[record]]
compound = "S=C(NCCCCc1c[nH]cn1)NCc1ccccc1"
measured_quantity = "ED50"
operator = "="
test_result = 105

[[record]]
compound = "CN/C(=N\\C#N)NCCSCc1ccccn1"
measured_quantity = "ED50"
operator = ">"
test_result = 602

[[record]]
compound = "CN/C(=N\\CCSCc1nc[nH]c1C)NC#N [CIMETIDINE]"
measured_quantity = "ED50"
operator = "="
test_result = 464

[[record]]
compound = "CNC(=S)NCCSCc1[nH]cnc1C [METIAMIDE]"
measured_quantity = "ED50"
operator = "="
test_result = 370

[[record]]
compound = "c1cc(CN2CCCCC2)cc(OCCCNc2nc3ccccc3s2)c1 [ZOLANTIDINE]"
measured_quantity = "ED50"
operator = ">"
test_result = 262

[[record]]
compound = "S=C(NCCCCc1c[nH]cn1)Nc1ccccc1"
measured_quantity = "ED50"
operator = "="
test_result = 81

[[record]]
compound = "S=C(NCCc1c[nH]cn1)Nc1ccccc1"
measured_quantity = "ED50"
operator = "="
test_result = 89

[[record]]
compound = "C/N=C(/NC#N)NCCSCc1csc(NC(=N)N)n1 [TIOTIDINE]"
measured_quantity = "ED50"
operator = ">"
test_result = 320

[[record]]
compound = "C/N=C(\\S)NCCCCCCc1c[nH]cn1"
measured_quantity = "ED50"
operator = "="
test_result = 87

[[record]]
compound = "C/N=C(\\S)NCCc1c[nH]cn1"
measured_quantity = "ED50"
operator = "="
test_result = 85

[[record]]
compound = "O=C(NCCCCc1c[nH]cn1)Nc1ccccc1"
measured_quantity = "ED50"
operator = "="
test_result = 65

